Assayed System: human MAO B (Homo sapiens)
Sequence (P27338 whole entry): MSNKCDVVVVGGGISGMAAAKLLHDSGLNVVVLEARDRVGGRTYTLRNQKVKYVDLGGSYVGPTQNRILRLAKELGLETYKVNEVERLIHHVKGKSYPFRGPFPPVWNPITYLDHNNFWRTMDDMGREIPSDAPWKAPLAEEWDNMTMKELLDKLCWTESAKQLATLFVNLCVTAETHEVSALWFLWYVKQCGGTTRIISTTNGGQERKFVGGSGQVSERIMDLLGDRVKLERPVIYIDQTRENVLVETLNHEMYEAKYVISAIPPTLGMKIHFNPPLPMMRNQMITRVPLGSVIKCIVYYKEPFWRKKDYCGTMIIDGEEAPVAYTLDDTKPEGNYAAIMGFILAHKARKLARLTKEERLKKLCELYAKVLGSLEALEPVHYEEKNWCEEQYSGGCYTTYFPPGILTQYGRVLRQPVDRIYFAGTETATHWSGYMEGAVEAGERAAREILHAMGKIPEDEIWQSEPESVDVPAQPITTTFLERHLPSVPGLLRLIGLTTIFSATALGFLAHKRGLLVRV
Experimental Protocol: Anti-MAO assay
Assay type: biochemical
Test Parameters: read-out: % inhibition at 100 μM MAO B
Value Type: inhibition at 100 µM (%)
The response must be a number in % with no trailing unit.

Sample records with inhibition at 100 µM:
[
  {
    "Compound": "NC1CC1c1ccc(NC(=O)OCc2ccccc2)cc1 (stereo not shown)",
    "Reading Unit": "%",
    "inhibition at 100 µM": 37
  },
  {
    "Compound": "NC1CC1c1ccc(NC(=O)c2ccc(NC(=O)OCc3ccccc3)cc2)cc1 (stereo not shown)",
    "Reading Unit": "%",
    "inhibition at 100 µM": 8
  },
  {
    "Compound": "NC1CC1c1ccc(NC(=O)c2ccccc2NC(=O)OCc2ccccc2)cc1 (stereo not shown)",
    "Reading Unit": "%",
    "inhibition at 100 µM": 17
  }
]

Would you kindly look at the next entry?
Reported inhibition at 100 µM of CN1CCN(c2cc(C(=O)Nc3ccc(C4CC4N)cc3)ccc2NC(=O)OCc2ccccc2)CC1 (stereo not shown) : 55

====

Assayed System: human recombinant LSD1/CoREST enzymatic complex (Homo sapiens, UniProt O60341)
Experimental Protocol: LSD1 enzyme inhibition assay
Type: biochemical
Value Type: pIC50
Lab note — pIC50 values are minus log10 of concentrations in M.

[
  {
    "Compound": "NC1CC1c1ccc(NC(=O)c2cc(NC(=O)c3ccccc3)ccc2OCC(=O)NCc2ccccc2)cc1 (stereo not drawn)",
    "Assayed System": "human recombinant LSD1/CoREST enzymatic complex (Homo sapiens, UniProt O60341)",
    "Obs Value": 5.77
  },
  {
    "Compound": "NC1CC1c1ccc(NC(=O)c2ccc(-c3ccccc3)cc2NC(=O)OCc2ccccc2)cc1 (stereo not drawn)",
    "Assayed System": "human recombinant LSD1/CoREST enzymatic complex (Homo sapiens, UniProt O60341)",
    "Obs Value": 6.87
  },
  {
    "Compound": "NC1CC1c1ccc(NC(=O)c2ccc(NC(=O)OCc3ccccc3)cc2)cc1 (stereo not drawn)",
    "Assayed System": "human recombinant LSD1/CoREST enzymatic complex (Homo sapiens, UniProt O60341)",
    "Obs Value": 7.05
  },
  {
    "Compound": "NC1CC1c1ccc(NC(=O)c2ccc(Sc3ccccc3)c(NC(=O)OCc3ccccc3)c2)cc1 (stereo not drawn)",
    "Assayed System": "human recombinant LSD1/CoREST enzymatic complex (Homo sapiens, UniProt O60341)",
    "Obs Value": 7.14
  },
  {
    "Compound": "NC1CC1c1ccc(NC(=O)c2ccc(Oc3ccccc3)c(NC(=O)OCc3ccccc3)c2)cc1 (stereo not drawn)",
    "Assayed System": "human recombinant LSD1/CoREST enzymatic complex (Homo sapiens, UniProt O60341)",
    "Obs Value": 6.84
  }
]

Reported pIC50 of NC1CC1c1ccc(NC(=O)c2ccccc2NC(=O)OCc2ccccc2)cc1 (stereo not drawn) : 6.84

====

Assayed System: human recombinant LSD1/CoREST enzymatic complex (Homo sapiens)
Experimental Protocol: LSD1 enzyme inhibition assay
Type: biochemical
Test Parameters: read-out: LSD1, IC50; LSD1/CoREST, 15 min preincubation; NI = no inhibition
Value Type: IC50 (µM)
The response must be a number in µM with no trailing unit.

[
  {
    "Molecule": "CN(C)C1CC1c1ccccc1 (centres unmarked)",
    "IC50 / µM": 56.2
  }
]

Reported IC50 of Cl.NC1CC1c1ccc(NC(=O)c2ccc(Br)cc2NC(=O)OCc2ccccc2)cc1 (centres unmarked) : 0.159
